meta.source: patent US7074789B2

Target: AKT (Homo sapiens, UniProt Q9Y243)
Construct: Kinases are expressed as either kinase domains or full length constructs; made in house
Sequence (Q9Y243 whole entry, the tested form may be a part): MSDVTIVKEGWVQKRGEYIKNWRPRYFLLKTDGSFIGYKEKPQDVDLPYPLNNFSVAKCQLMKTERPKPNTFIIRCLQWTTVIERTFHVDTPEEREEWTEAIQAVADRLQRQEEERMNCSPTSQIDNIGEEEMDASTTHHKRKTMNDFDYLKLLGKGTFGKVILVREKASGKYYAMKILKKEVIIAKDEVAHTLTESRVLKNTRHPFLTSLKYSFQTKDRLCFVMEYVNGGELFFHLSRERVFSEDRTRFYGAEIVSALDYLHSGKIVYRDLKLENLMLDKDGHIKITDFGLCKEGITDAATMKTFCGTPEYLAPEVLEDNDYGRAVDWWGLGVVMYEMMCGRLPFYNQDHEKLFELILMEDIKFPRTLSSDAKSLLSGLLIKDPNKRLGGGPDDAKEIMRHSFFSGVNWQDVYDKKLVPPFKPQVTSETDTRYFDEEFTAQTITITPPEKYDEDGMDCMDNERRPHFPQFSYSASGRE
Test: Kinase inhibition assay (33P transfer), AKT
Assay type: biochemical
Conditions: Table 2, class symbols A-E; read-out: AKT3-1
pIC50: −log10 of the molar value.
Give measured pIC50 for each item. Keep answers brief.

AKT (Homo sapiens, UniProt Q9Y243) / pIC50 / COc1cc(Nc2ncnc(-c3cccnc3Nc3ccccc3)n2)ccc1NC(=O)CCCN1CCNCC1 [Compound 1093] : value? < 5.08

And Cc1ccc(Cl)cc1Nc1ncnc(Nc2cc(Cl)ccc2C)n1 [Compound 638] ? < 4.90

And COc1ccc(Nc2ncnc(Nc3ccc(N4CCCCC4)cc3)n2)cc1OC [Compound 899] ? 5.06 to 5.23

And COc1ccc2[nH]cc(CCNc3ncnc(Nc4ccc(OC)c(OC)c4)n3)c2c1 [Compound 855] ? < 4.97

And c1ccc(CNc2ncccc2-c2ncnc(Nc3cccc(Cn4ccnn4)c3)n2)cc1 [Compound 1101] ? < 4.99

And COc1cc(Nc2ncnc(-c3cccnc3NC3CCCCC3)n2)cc(OC)c1OC [Compound 848] ? < 4.99

And COc1ccc(Nc2ncnc(NCCc3ccc(Cl)c(Cl)c3)n2)cc1OC [Compound 859] ? 5.24 to 6.02

And CNS(=O)(=O)Cc1ccc(Nc2ncnc(Nc3cc(-c4ccco4)[nH]n3)n2)cc1 [Compound 888] ? 5.25 to 6.03

And COc1ccc(N(C)c2ncnc(Nc3ccc(OC)c(OC)c3)n2)cc1 [Compound 863] ? < 4.91

And COc1ccc(Nc2ncnc(Nc3cccc(C#N)c3)n2)cc1OC [Compound 897] ? < 4.89

And c1coc(-c2cc(Nc3ncnc(Nc4nc[nH]n4)n3)n[nH]2)c1 [Compound 889] ? < 4.84

And Cc1ccc2c(c1)CCCN2c1ncnc(Nc2ccc(F)c(F)c2)n1 [Compound 893] ? 5.17 to 5.95

And c1ccc(CNc2ncccc2-c2ncnc(Nc3ccc(N4CCOCC4)cc3)n2)cc1 [Compound 1105] ? < 4.99

And COc1ccc(CNc2ncnc(Nc3cc(-c4ccco4)n[nH]3)n2)cc1 [Compound 994] ? < 4.91

And COC(=O)c1ccc(-c2cc(Nc3ncnc(Nc4cccc(Cc5nnn[nH]5)c4)n3)[nH]n2)cc1 [Compound 991] ? 5.13 to 5.29

And COC(=O)c1ccc(-c2cc(Nc3ncnc(Nc4ccc(N5CCOCC5)cc4)n3)[nH]n2)cc1 [Compound 807] ? < 5.02

And COc1cc(Nc2ncnc(-c3cccnc3Nc3ccc(C(C)=O)cc3)n2)cc(OC)c1OC [Compound 832] ? < 5.02

---

Biological target: Zap-70 (Homo sapiens, UniProt P43403)
Construct: Kinases are expressed as either kinase domains or full length constructs; made in house
Sequence (P43403 whole entry, species assumed, the tested form may be a part): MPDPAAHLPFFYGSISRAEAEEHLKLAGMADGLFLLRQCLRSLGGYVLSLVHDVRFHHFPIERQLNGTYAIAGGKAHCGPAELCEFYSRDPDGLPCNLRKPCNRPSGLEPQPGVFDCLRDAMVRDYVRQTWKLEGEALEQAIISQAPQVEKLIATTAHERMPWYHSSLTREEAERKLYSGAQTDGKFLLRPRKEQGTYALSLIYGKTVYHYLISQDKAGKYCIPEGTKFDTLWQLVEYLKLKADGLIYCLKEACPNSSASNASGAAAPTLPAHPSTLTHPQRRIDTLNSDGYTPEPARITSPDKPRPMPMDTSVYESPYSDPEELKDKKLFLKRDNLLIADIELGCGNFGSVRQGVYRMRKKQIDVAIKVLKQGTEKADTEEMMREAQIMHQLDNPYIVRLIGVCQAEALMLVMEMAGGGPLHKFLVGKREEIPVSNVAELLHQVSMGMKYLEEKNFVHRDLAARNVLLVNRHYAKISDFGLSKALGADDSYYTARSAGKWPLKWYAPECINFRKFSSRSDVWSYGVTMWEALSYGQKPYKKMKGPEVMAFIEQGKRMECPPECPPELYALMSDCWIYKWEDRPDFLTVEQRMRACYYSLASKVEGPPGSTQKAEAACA
Test: Kinase inhibition assay (33P transfer), Zap-70
Assay type: biochemical
Conditions: Table 3; read-out: Zap-1
pIC50: −log10 of the molar value.
measurement name: pIC50

What does the record list as pIC50 for `COc1cc(Nc2ncnc(-n3c(Nc4cccc(C)c4)nc4ccccc43)n2)cc(OC)c1OC` ? < 5.03

And `COc1cc(Nc2ncnc(Nc3ccc(C)c(NS(C)(=O)=O)c3)n2)cc(OC)c1OC` ? < 5.01

And `COc1cc(Nc2ncnc(Nc3cccc(O)c3)n2)cc(OC)c1OC` ? < 4.91

And `COc1cc(Nc2nc3ccccc3n2-c2ncnc(Nc3cc(OC)c(OC)c(OC)c3)n2)cc(OC)c1` ? < 5.07

And `CC(=O)Nc1ccc(Nc2ncnc(-c3cccs3)n2)cc1` ? < 4.84

And `COc1cc(Nc2ncnc(Nc3cccc(OC(F)(F)F)c3)n2)cc(OC)c1OC` ? < 4.99

And `O=c1[nH]c2ccccc2n1-c1ncnc(Nc2cccc([N+](=O)[O-])c2)n1` ? 5.00 to 5.16

And `COc1cc(Nc2ncnc(Nc3ccc(C(=O)O)cc3)n2)cc(OC)c1OC` ? < 4.95

And `COc1cc(Nc2ncnc(Nc3ccc(N(C)C(C)=O)cc3)n2)cc(OC)c1OC` ? < 4.97

And `c1csc(-c2ncnc(Nc3ccc4c(c3)OCO4)n2)c1` ? < 4.82

And `COCCOc1ccc(Nc2ncnc(Nc3ccc(C)c(F)c3)n2)cc1OCCOC` ? < 4.99

And `CNc1ncnc(Nc2cc(OC)c(OC)c(OC)c2)n1` ? < 4.81

And `COc1ccc(Nc2ncnc(Nc3ccc(OC)c(OC)c3)n2)cc1OC` ? < 4.93

And `Nc1nc2ccccc2n1-c1ncnc(Nc2ccc(-c3cnco3)cc2)n1` ? 4.92 to 5.02

And `Oc1cccc(Nc2ncnc(-c3ccccc3)n2)c1` ? < 4.77

And `Cc1cccc(Nc2ncnc(Nc3ccc(O)cc3)n2)c1` ? < 4.81

And `COc1cc(Nc2ncnc(N3CCC(O)CC3)n2)cc(OC)c1OC` ? < 4.90

And `COCCOc1ccc(Nc2ncnc(Nc3ccc(C)c(O)c3)n2)cc1OC` ? < 4.95
